Target Entity: T1, glucose-dependent insulinotropic peptide (gastric inhibitory polypeptide) receptor (GIPR) (human, UniProt P48546 22-466)
T1 sequence (looked up): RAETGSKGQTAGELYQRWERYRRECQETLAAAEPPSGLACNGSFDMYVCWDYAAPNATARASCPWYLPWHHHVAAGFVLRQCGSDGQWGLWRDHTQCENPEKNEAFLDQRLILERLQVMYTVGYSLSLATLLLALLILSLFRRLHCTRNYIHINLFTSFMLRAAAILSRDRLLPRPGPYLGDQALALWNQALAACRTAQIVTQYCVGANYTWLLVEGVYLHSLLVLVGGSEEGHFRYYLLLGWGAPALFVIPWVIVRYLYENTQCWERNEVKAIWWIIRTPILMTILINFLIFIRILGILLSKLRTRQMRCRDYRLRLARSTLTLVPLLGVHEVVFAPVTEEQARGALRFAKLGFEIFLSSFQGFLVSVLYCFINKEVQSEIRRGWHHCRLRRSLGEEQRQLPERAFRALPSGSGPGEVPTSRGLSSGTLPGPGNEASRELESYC
Test Description: cell-based or functional assay
Starred links: 1 amine or outer side, 2 acyl side, 3 side chain; linkers in the order of their positions; H or OH if unused. Non-standard residues stand in square brackets, D forms with d. Groups on a side chain read outwards from the residue. Primed or numbered codes have the meaning given here. No end group written: not given here. *: point of attachment. γGlu = O=C(O)[C@H](CCC(=O)[*:2])N[*:1]; Stearoyl = CCCCCCCCCCCCCCCCCC(=O)*; αMeF = C[C@](N)(Cc1ccccc1)C(=O)O; αMeK = C[C@](N)(CCCCN)C(=O)O; αMeS = C[C@](N)(CO)C(=O)O; PEG2′ = not defined here; Aib = CC(C)(N)C(=O)O
Measured Parameter: cAMP Primary assay EC50 GIP-R (2nd) (nM)

INSERT INTO measurements (binder, readout_units, recorded_measurement) VALUES
  ('H[Aib]EGS[αMeF]TSDV[αMeS]S[αMeF]LEGK([PEG2′-PEG2′-γGlu-Stearoyl])AA[αMeK]E[αMeF]IA[αMeF]VV[αMeK]GG-NH2 [SEQ ID NO 112]', 'nM', 25.4),
  ('H[Aib]EGS[αMeF]TSDV[αMeS]S[αMeF]LEGEAA[αMeK]E[αMeF]IK([PEG2′-PEG2′-γGlu-Stearoyl])[αMeF]VV[αMeK]GG-NH2 [SEQ ID NO 105]', 'nM', 25),
  ('H[Aib]EGS[αMeF]TSDV[αMeS]S[αMeF]LK([PEG2′-PEG2′-γGlu-Stearoyl])GEAA[αMeK]E[αMeF]IA[αMeF]VV[αMeK]GG-NH2 [SEQ ID NO 114]', 'nM', 25.4),
  ('H[Aib]EGSK([PEG2′-PEG2′-γGlu-Stearoyl])TSDV[αMeS]S[αMeF]LEGEAA[αMeK]E[αMeF]IA[αMeF]VV[αMeK]GG-NH2 [SEQ ID NO 123]', 'nM', 25.6);
